Test: Wnt/beta-catenin pathway activators, primary screen, cell-based, plate reader, single point (AID 743398);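 further: 0% = neutral control wells and 100% = positive control wells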
Conditions: Wnt/beta-catenin reporter cell assay, activator, at 9.35 µM, active compounds read high
Among all 300,000 compounds or so, about 3,600 (1.2%) were called active. The list comes from a sample in which actives are over-represented; it also holds close analogues and randomly drawn compounds.

{"columns": ["Structure As Smiles", "activation, %"],
 "data": [
  ["Nc1ccn([C@@H]2O[C@H](C(=O)N[C@H]3CCCCNC3=O)[C@@H](O)[C@H]2O)c(=O)n1", -3.4],
  ["Cc1cccc(Nc2nc(-c3ccccc3)cs2)n1", 19.7],
  ["O=C(NCc1ccccc1)[C@@H]1CCCN1C(=O)[C@H]1CCCN1C(=O)c1cccc(Cl)c1", 3.03],
  ["O=S1(=O)c2ccc(Br)cc2-n2nncc2CN1Cc1cccc(Cl)c1", -0.853],
  ["CCN(CC)C(=O)c1sc2nc(-c3ccccc3)ccc2c1N", 10.1]
]}
